# key: entry, value: self-cleavage
B1: CPEB3 Ribozyme (parent)
chain: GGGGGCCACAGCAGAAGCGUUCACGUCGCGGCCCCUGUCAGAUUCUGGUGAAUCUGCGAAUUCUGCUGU

- Variants of: B1
- procedure summary: self-cleavage, relative activity (ratio to wild type); higher = more cleavage; co-transcriptional
// keep it numeric: no unit symbol after the value

Some variants with recorded self-cleavage:
>  <mutation list>
A13C U67G

>  <self-cleavage>
0.824

$$$$
>  <mutation list>
U44G U61G

>  <self-cleavage>
0.82

$$$$

Consider the record given below.
Note to self: self-cleavage recorded for G5A C35A was 0.203
